Hello, the source for this data is ChEMBL document CHEMBL3885861, in case you need it.

Quick reference: BUN of the listed items.
# Species on record: Rattus norvegicus
# run.description: Open TG-GATES - Regimen: Daily Repeat
# Type: toxicity, organism-based, Sprague-Dawley
# Design: regimen Daily Repeat, gender Male, age 6 weeks
# condition.parameters: in vivo, po, 100 mg/kg, 72 h, tissue Plasma, route gavage, dose level Low, time 3 day
Write the number in mg/dL without appending the unit.

Past entries and their recorded results:
{"molecule": "CC(C)(S)[C@@H](N)C(=O)O [PENICILLAMINE]", "BUN, mg/dL": 13}
{"molecule": "O=C(O)c1cccnc1 [NIACIN]", "BUN, mg/dL": 16}

Data point: O=C(N[C@H](CO)[C@H](O)c1ccc([N+](=O)[O-])cc1)C(Cl)Cl [CHLORAMPHENICOL] ; BUN = 15.6

Per the record, CCN1CCCC1CNC(=O)c1cc(S(N)(=O)=O)ccc1OC (centres undefined) [SULPIRIDE] has BUN of 13.6
